- System: TTR
- protocol-summary: TTR editing in primary human hepatocytes electroporated with Spy Cas9 protein loaded with dgRNAs (Table 7)
- Format: cell-based
- experimental-setup: dgRNA electroporated with Spy Cas9 protein (RNP)
So I've got a bunch of sequences here, and I need their Avg % Insert values.
Report the value in % with no unit label.

query: Form field: reported Avg % Insert of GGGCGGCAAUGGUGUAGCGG (tested as dual guide RNA, chemistry not given here) [CR003379]
result: 6.30

query: Form field: reported Avg % Insert of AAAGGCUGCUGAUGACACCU (tested as dual guide RNA, chemistry not given here) [CR003353]
result: 82.23

query: Form field: reported Avg % Insert of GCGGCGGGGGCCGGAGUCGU (tested as dual guide RNA, chemistry not given here) [CR003374]
result: 0.70

query: Form field: reported Avg % Insert of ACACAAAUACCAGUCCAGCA (tested as dual guide RNA, chemistry not given here) [CR003339]
result: 8.93

====

So I've got a bunch of sequences here, and I need their Avg % Insert values.
- Tested on: TTR
- protocol-summary: TTR editing in primary human hepatocytes transfected with Spy Cas9 protein (RNP) loaded with dgRNAs (Table 8)
- Assay type: cell-based
- experimental-setup: dgRNA transfected with Spy Cas9 protein (RNP)
Report the value in % with no unit label.

query: Form field: reported Avg % Insert of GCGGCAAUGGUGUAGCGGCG (tested as dual guide RNA, chemistry not given here) [CR003377]
result: 12.45

query: Form field: reported Avg % Insert of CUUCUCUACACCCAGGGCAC (tested as dual guide RNA, chemistry not given here) [CR003342]
result: 19.85

query: Form field: reported Avg % Insert of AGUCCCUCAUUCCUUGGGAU (tested as dual guide RNA, chemistry not given here) [CR003392]
result: 9.93

query: Form field: reported Avg % Insert of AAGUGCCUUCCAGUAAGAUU (tested as dual guide RNA, chemistry not given here) [CR003368]
result: 33.83

query: Form field: reported Avg % Insert of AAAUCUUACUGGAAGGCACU (tested as dual guide RNA, chemistry not given here) [CR005306]
result: 16.24

query: Form field: reported Avg % Insert of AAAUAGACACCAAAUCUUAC (tested as dual guide RNA, chemistry not given here) [CR003366]
result: 37.95

query: Form field: reported Avg % Insert of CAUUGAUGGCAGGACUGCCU (tested as dual guide RNA, chemistry not given here) [CR003347]
result: 66.11

query: Form field: reported Avg % Insert of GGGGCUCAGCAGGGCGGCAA (tested as dual guide RNA, chemistry not given here) [CR003381]
result: 6.88

====

So I've got a bunch of sequences here, and I need their Avg % Deletion values.
- Tested on: TTR
- protocol-summary: TTR editing in primary human hepatocytes electroporated with Spy Cas9 protein loaded with dgRNAs (Table 7)
- Format: cell-based
- experimental-setup: dgRNA electroporated with Spy Cas9 protein (RNP)
- Method: Primary liver hepatocytes. Primary human liver hepatocytes (PHH) and primary cynomolgus liver hepatocytes (PCH) (Gibco) were cultured per the manufacturer's protocol (Invitrogen, protocol 11.28.2012). […] Cells were counted and plated on Bio-coat collagen I coated 96-well plates (ThermoFisher, Cat. 877272) at a density of 33,000 cells/well for human or 60,000 cells/well for cyno (or 65,000 cells/well when assaying effects on TTR protein, described further below). […]
Report the value in % with no unit label.

query: API: value(readout=Avg % Deletion, system=TTR) for record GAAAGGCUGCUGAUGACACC (tested as dual guide RNA, chemistry not given here) [CR003352]
result: 4.30

query: API: value(readout=Avg % Deletion, system=TTR) for record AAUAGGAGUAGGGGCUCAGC (tested as dual guide RNA, chemistry not given here) [CR003384]
result: 0.23

query: API: value(readout=Avg % Deletion, system=TTR) for record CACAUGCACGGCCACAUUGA (tested as dual guide RNA, chemistry not given here) [CR003350]
result: 5.73

query: API: value(readout=Avg % Deletion, system=TTR) for record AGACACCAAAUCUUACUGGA (tested as dual guide RNA, chemistry not given here) [CR003367]
result: 16.37

query: API: value(readout=Avg % Deletion, system=TTR) for record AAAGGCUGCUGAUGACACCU (tested as dual guide RNA, chemistry not given here) [CR003353]
result: 2.63

query: API: value(readout=Avg % Deletion, system=TTR) for record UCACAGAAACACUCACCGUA (tested as dual guide RNA, chemistry not given here) [CR005300]
result: 4.10

query: API: value(readout=Avg % Deletion, system=TTR) for record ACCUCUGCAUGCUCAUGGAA (tested as dual guide RNA, chemistry not given here) [CR003371]
result: 1.87

====

- Test system: TTR
- protocol-summary: TTR editing in primary human hepatocytes electroporated with Spy Cas9 protein loaded with dgRNAs (Table 7)
- Assay type: cell-based
- experimental-setup: dgRNA electroporated with Spy Cas9 protein (RNP)
Rule: Avg % Deletion of 0.7% or more gives TRUE; anything lower gives FALSE.

query: Dear colleague, could you confirm whether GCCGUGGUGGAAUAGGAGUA (tested as dual guide RNA, chemistry not given here) [CR003387] has Avg % Deletion at or above 0.7%?
result: FALSE

query: Dear colleague, could you confirm whether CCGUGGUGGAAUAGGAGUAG (tested as dual guide RNA, chemistry not given here) [CR003386] has Avg % Deletion at or above 0.7%?
result: FALSE

query: Dear colleague, could you confirm whether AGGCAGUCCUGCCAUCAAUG (tested as dual guide RNA, chemistry not given here) [CR003348] has Avg % Deletion at or above 0.7%?
result: TRUE

query: Dear colleague, could you confirm whether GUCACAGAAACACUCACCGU (tested as dual guide RNA, chemistry not given here) [CR005301] has Avg % Deletion at or above 0.7%?
result: TRUE

query: Dear colleague, could you confirm whether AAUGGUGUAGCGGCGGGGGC (tested as dual guide RNA, chemistry not given here) [CR003375] has Avg % Deletion at or above 0.7%?
result: FALSE

query: Dear colleague, could you confirm whether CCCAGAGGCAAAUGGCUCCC (tested as dual guide RNA, chemistry not given here) [CR003355] has Avg % Deletion at or above 0.7%?
result: TRUE

query: Dear colleague, could you confirm whether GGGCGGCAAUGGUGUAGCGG (tested as dual guide RNA, chemistry not given here) [CR003379] has Avg % Deletion at or above 0.7%?
result: FALSE

query: Dear colleague, could you confirm whether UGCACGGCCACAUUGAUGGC (tested as dual guide RNA, chemistry not given here) [CR003349] has Avg % Deletion at or above 0.7%?
result: TRUE

query: Dear colleague, could you confirm whether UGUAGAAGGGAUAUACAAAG (tested as dual guide RNA, chemistry not given here) [CR003365] has Avg % Deletion at or above 0.7%?
result: TRUE

query: Dear colleague, could you confirm whether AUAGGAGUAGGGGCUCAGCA (tested as dual guide RNA, chemistry not given here) [CR003383] has Avg % Deletion at or above 0.7%?
result: TRUE

query: Dear colleague, could you confirm whether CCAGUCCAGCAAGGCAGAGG (tested as dual guide RNA, chemistry not given here) [CR003337] has Avg % Deletion at or above 0.7%?
result: TRUE

query: Dear colleague, could you confirm whether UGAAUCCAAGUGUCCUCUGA (tested as dual guide RNA, chemistry not given here) [CR005303] has Avg % Deletion at or above 0.7%?
result: FALSE

query: Dear colleague, could you confirm whether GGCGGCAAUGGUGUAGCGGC (tested as dual guide RNA, chemistry not given here) [CR003378] has Avg % Deletion at or above 0.7%?
result: TRUE

query: Dear colleague, could you confirm whether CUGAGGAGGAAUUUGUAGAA (tested as dual guide RNA, chemistry not given here) [CR003364] has Avg % Deletion at or above 0.7%?
result: TRUE
